Test system: G. lamblia trophozoites (luciferase expressing, WBC6)
Test: microbe, parasite or virus in culture
Type: cell-based, Giardia lamblia
Details: initial Pathogen Box screen, single concentration 16 µM, inhibition compared to DMSO wells
Reported property: Giardia (16 uM) Mean % inhibition (%)
A number alone suffices; assume %.

Past entries and their recorded results:
CO[C@@H](C(=O)N1Cc2[nH]nc(NC(=O)c3ccc(N4CCN(C)CC4)cc3)c2C1)c1ccccc1 [MMV676600]
6
COc1cccc(-n2nnnc2S(=O)(=O)Cc2ccccc2)c1 [MMV676388]
38
CC(C)(C)c1cc(C(=O)N2CCN(c3nccnc3C#N)CC2)n(Cc2ccccc2)n1 [MMV023949]
36

Ask | // Giardia (16 uM) Mean % inhibition lookup, key: COc1ccc(S(=O)(=O)Nc2ccc(CN3CCN(C(=O)c4cccc(C#N)c4)CC3)cc2)cc1 [MMV689029]
Reply | 54

Ask | // Giardia (16 uM) Mean % inhibition lookup, key: CC(Oc1ccccc1)C(=O)Nc1nc(-c2ccccn2)cs1 (stereo not drawn) [MMV676411]
Reply | 16

Ask | // Giardia (16 uM) Mean % inhibition lookup, key: C[C@H](C(N)=O)N1CCCC[C@@H]1c1ccc(OCc2cccc(F)c2)cc1 [MMV676270]
Reply | 20

Ask | // Giardia (16 uM) Mean % inhibition lookup, key: O=C(Nc1cccc(-c2ccc(NCCCN3CCCC3)nc2)c1)c1ccccc1 [MMV023953]
Reply | 82

Ask | // Giardia (16 uM) Mean % inhibition lookup, key: c1coc(CNc2nc(N3CCCCC3)nc3ccccc23)c1 [MMV676401]
Reply | 76

Ask | // Giardia (16 uM) Mean % inhibition lookup, key: Cc1cc(NC(=O)c2ccc(Oc3ccc(Cl)cc3O)o2)no1 [MMV688955]
Reply | 26

Ask | // Giardia (16 uM) Mean % inhibition lookup, key: CCCCS(=O)(=O)Nc1ccc2cnn(C)c2c1 [MMV687145]
Reply | 56

Ask | // Giardia (16 uM) Mean % inhibition lookup, key: CC(c1cc(Cl)cc(Cl)c1)N(C)c1ncc2c(N)nc(N)nc2n1 (stereo not drawn) [MMV689437]
Reply | 46

Ask | // Giardia (16 uM) Mean % inhibition lookup, key: CCc1nc2ccc(Cl)cn2c1C(=O)NCc1ccc(N2CCC(c3ccc(OC(F)(F)F)cc3)CC2)cc1 [MMV687696]
Reply | 26

###

Tested on: G. lamblia trophozoites (luciferase expressing, WBC6)
Experiment: microbe, parasite or virus in culture
Assay type: cell-based, Giardia lamblia
Conditions: initial Pathogen Box screen, single concentration 16 µM, inhibition compared to DMSO wells
Reported property: Giardia (16 uM) Mean % inhibition (%)
A number alone suffices; assume %.

CS(=O)(=O)c1cccc(-c2cnc3[nH]cc(-c4ccc(CCC(=O)O)cc4)c3c2)c1
19

Ask | Could you share what Giardia (16 uM) Mean % inhibition was measured for "O=C(Nc1nnc(-c2ccc(Cl)cc2)o1)c1cccc(C(F)(F)F)c1" , tested on G. lamblia trophozoites (luciferase expressing, WBC6)?
Reply | 35

###

Below, each entry is listed alongside its reported inhibition at 10 µM.
Tested on: C. parvum (UGA1 Nluc expressing strain in HCT-8 cells)
Experiment: microbe, parasite or virus in culture
Assay type: cell-based, Cryptosporidium parvum
Conditions: Cryptosporidium parvum, HCT-8, read-out: Crypto (10 uM) Mean % inhibition

Oc1c(I)cc(I)c2cccnc12 [MMV002817, Iodoquinol, reference compound]
95%

Ask | // inhibition at 10 µM lookup, key: CC1CS(=O)(=O)CCN1/N=C/c1ccc([N+](=O)[O-])o1 (stereo not shown) [MMV001499, Nifurtimox, reference compound]
Reply | < 0%

Ask | // inhibition at 10 µM lookup, key: CC(=O)Oc1ccccc1C(=O)Nc1ncc([N+](=O)[O-])s1 [MMV688991, Nitazoxanide, reference compound]
Reply | 92%

Ask | // inhibition at 10 µM lookup, key: CC(C)/N=c1\cc2n(-c3ccc(Cl)cc3)c3ccccc3nc-2cc1Nc1ccc(Cl)cc1 [MMV687800, Clofazimine, reference compound]
Reply | 82%

Ask | // inhibition at 10 µM lookup, key: N=C(N)c1ccc(OCCCCCOc2ccc(C(=N)N)cc2)cc1 [MMV000062, pentamidine, reference compound]
Reply | 50%

Ask | // inhibition at 10 µM lookup, key: COC(=O)Nc1nc2ccc(C(=O)c3ccccc3)cc2[nH]1 [MMV003152, mebendazole, reference compound]
Reply | 91%

Ask | // inhibition at 10 µM lookup, key: C[C@]1(COc2ccc(N3CCC(Oc4ccc(OC(F)(F)F)cc4)CC3)cc2)Cn2cc([N+](=O)[O-])nc2O1 [MMV688262, Delamanid, reference compound]
Reply | < 0%

###

Below, each entry is listed alongside its reported EC50.
Tested on: G. lamblia trophozoites (luciferase expressing, WBC6)
Assay: microbe, parasite or virus in culture
Type: cell-based, Giardia lamblia
Details: Giardia duodenalis, 24 h, read-out: G. lamblia EC50
Procedure: Trophozoites were harvested by chilling cultures on ice for 30 minutes and plated by adding 150 μL per well at a concentration of 250,000 cells/mL. Metronidazole (Sigma, St. Louis, MO) was used as a control and was serially diluted 1:2 from 40 μM to 0.04 μM and 150 μL was added to the 150 μL of the G. lamblia trophozoites. Plates were covered in plastic low-evaporation lids, sealed in individual anaerobic BD GasPak Bio-Bags (Becton Dickinson, San Jose, CA) and incubated at 37 °C for 24 hours. […]
A number alone suffices; assume nM.

CC1CS(=O)(=O)CCN1/N=C/c1ccc([N+](=O)[O-])o1 (stereo not shown) [MMV001499, Nifurtimox, reference compound]
640
C[C@]1(COc2ccc(N3CCC(Oc4ccc(OC(F)(F)F)cc4)CC3)cc2)Cn2cc([N+](=O)[O-])nc2O1 [MMV688262, Delamanid, reference compound]
550
CC(=O)Oc1ccccc1C(=O)Nc1ncc([N+](=O)[O-])s1 [MMV688991, Nitazoxanide, reference compound]
800
Cc1ncc([N+](=O)[O-])n1CCO [metronidazole, Metronidazole]
2240
CCCSc1ccc2nc(NC(=O)OC)[nH]c2c1 [albendazole, Albendazole, reference compound]
410
CC(C)/N=c1\cc2n(-c3ccc(Cl)cc3)c3ccccc3nc-2cc1Nc1ccc(Cl)cc1 [MMV687800, Clofazimine, reference compound]
1790

Below: the item to evaluate.
Ask | // EC50 lookup, key: Oc1c(I)cc(I)c2cccnc12 [MMV002817, Iodoquinol, reference compound]
Reply | 2520

###

Biological target: G. lamblia trophozoites (luciferase expressing, WBC6)
Assay: microbe, parasite or virus in culture
Type: cell-based, Giardia lamblia
Details: luciferase expressing G. lamblia trophozoites, 24 hours, D-luciferin bioluminescence read-out; read-out: G. lamblia EC50
Below, each entry is listed alongside its reported EC50.
A number alone suffices; assume nM.

Past entries and their recorded results:
O=C(Nc1ccc(C(F)(F)F)c(C(F)(F)F)c1)c1cc(Cl)ccc1O [MMV687807]
510
O=[N+]([O-])c1cn2c(n1)OC[C@@H](OCc1ccc(OC(F)(F)F)cc1)C2 [MMV688755]
1570
O=C(Nc1cccnc1)c1c(O)c2cccc3c2n(c1=O)CC3 [MMV676395]
1570

Ask | // EC50 lookup, key: O=C(Nc1ccc(N2CCNCC2)cc1)c1ccn2ncc(-c3cccc(Cl)c3)c2n1 [MMV022478]
Reply | 2410

Ask | // EC50 lookup, key: COc1ccc2nccc(NC(=O)C3CCN(CCc4ccc(Cl)cc4)CC3)c2n1 [MMV688844]
Reply | 2300

Ask | // EC50 lookup, key: CC(C)(C)c1cnc(NC(=O)c2ccccc2O)s1 [MMV495543]
Reply | 2770

Ask | // EC50 lookup, key: OCCc1ccc(Nc2nccc(-c3nnc4ccccn34)n2)cc1 [MMV028694]
Reply | 3880

Ask | // EC50 lookup, key: COc1cc(-c2cc(-c3ccc(S(C)(=O)=O)cc3)cnc2N)ccc1O [MMV010576]
Reply | 1900

###

Test system: G. lamblia trophozoites (luciferase expressing, WBC6)
Assay: microbe, parasite or virus in culture
Format: cell-based, Giardia lamblia
Conditions: initial Pathogen Box screen, single concentration 16 µM, inhibition compared to DMSO wells
Decide by Giardia (16 uM) Mean % inhibition: equal to or exceeding 30% means label 1, less means label 0.

# count of solved cases: 5
O=C(NCCc1c[nH]c2ccccc12)c1cc2ccccc2oc1=O [MMV676539]
label 0
N#Cc1ccc(-c2cnc(N)c(-c3ccc(C(N)=O)cc3)n2)cc1 [MMV085499]
label 1
Cc1nn(C)cc1C(C)Nc1nncc(-c2ccc(C(F)(F)F)cc2)n1 (stereo not drawn) [MMV019993]
label 0
CN1CCN(CCCOc2ncc(Nc3ncc(-c4ccc(C(F)(F)F)c(F)c4)nc3C(N)=O)cn2)CC1 [MMV687812]
label 1
CCN(CC)CCCCCCNc1cc(OC)cc2c(C)ccnc12 [MMV000063]
label 0

Ask | Tell me whether Giardia (16 uM) Mean % inhibition is at least 30% here: CCc1ccc(C(NCc2nc(N)nc(N(C)C)n2)C(C)C)cc1 (stereo not drawn) [MMV1019989]
Reply | label 0

Ask | Tell me whether Giardia (16 uM) Mean % inhibition is at least 30% here: Clc1ccc(Cl)c(CO[C@H]2CCCC[C@@H]2n2ccnc2)c1 [MMV676048]
Reply | label 1

Ask | Tell me whether Giardia (16 uM) Mean % inhibition is at least 30% here: O=C(c1ccc(F)cc1)N(CCNc1ccccc1)c1ccccc1 [MMV676204]
Reply | label 0

// provenance: paper PMC6095626
